Where these numbers come from: patent US20120094939A1

# Tested on: Huh7/Rep-Feo cells
# assay-method-text: Primary HTS cell viability counter-screen (CellTiterGlo)
# Type: cell-based, human
# measurement-context: Table 2 antiviral hits of DOS set; approximately 10-50 μM, most at 33 μM; 48 hours
property-measured: C-CompZ, compositeZ score for cell viability assay

{"columns": ["compound", "val"],
 "data": [
  ["O=c1n(-c2ccccc2)c(=O)n2n1CC[C@@H]1/C(=N/OC[C@@H](O)COCc3ccco3)[C@H]3O[C@H]3[C@@H](O)[C@@H]12", 1.1582],
  ["Cc1cc(C)c(-c2cc([C@H](C)O/N=C3/[C@H]4CCn5c(=O)n(-c6ccccc6)c(=O)n5[C@H]4[C@H](O)[C@@H]4O[C@H]34)on2)c(C)c1", "−1.7178"],
  ["COC12C=C(Br)C(CC1c1cccc(C)c1)[C@@]1(CO1)C2=O (stereo partly drawn)", "−0.795"],
  ["O=C1C2C=C(I)C(CC2OCCCCO)[C@@]12CO2 (stereo partly drawn)", 0.6345],
  ["Cc1cc2c(nc1C)CCCN2CC(C)O/N=C1/[C@H]2CCn3c(=O)n(-c4ccccc4)c(=O)n3[C@H]2[C@H](O)[C@@H]2O[C@H]12 (stereo partly drawn)", 0.3574],
  ["O=C1C2C=C(Br)C(CC2c2ccccc2)[C@@]12CO2 (stereo partly drawn)", "−0.856"],
  ["O=C1C2(CO)C=C(Br)C(CC2c2ccccc2)[C@@]12CO2 (stereo partly drawn)", "−0.2965"],
  ["COc1ccc(O[C@H]2C=C[C@@H](c3ccccc3)O[C@@H]2CO/N=C2/[C@H]3CCn4c(=O)n(-c5ccccc5)c(=O)n4[C@H]3[C@H](O)[C@@H]3O[C@H]23)cc1", "−1.5319"],
  ["C#CCCCO/N=C1/[C@H]2CCn3c(=O)n([C@@H](CC)c4ccccc4)c(=O)n3[C@H]2[C@H](O)[C@@H]2O[C@H]12", 0.2217]
]}

---

# System: Huh7/Rep-Feo HCV replicon (HCV RNA replication)
# Format: cell-based, Hepatitis C virus (strain HCV—N, genotype 1b)
# measurement-context: Table 2 antiviral hits of DOS set; approximately 10-50 μM, most at 33 μM; 48 hours
Recorded R-CompZ, compositeZ score for reporter gene assay determines the group label, using Low: < -4; Mid: ≥ -4 and < -3; High: ≥ -3

{"columns": ["molecule", "group"],
 "data": [
  ["O=c1n(-c2ccccc2)c(=O)n2n1CC[C@@H]1/C(=N/OC[C@@H](O)COCc3ccco3)[C@H]3O[C@H]3[C@@H](O)[C@@H]12", "Mid"],
  ["CC[C@@H](c1ccccc1)n1c(=O)n2n(c1=O)[C@H]1[C@H](O)[C@@H]3O[C@@H]3/C(=N\\OC[C@@H](O)COCc3ccco3)[C@H]1CC2", "High"],
  ["CC(=O)OC[C@H]1O[C@H](CCO/N=C2/[C@H]3CCn4c(=O)n(-c5ccccc5)c(=O)n4[C@H]3[C@H](O)[C@@H]3O[C@H]23)C=C[C@@H]1OC(C)=O", "Low"],
  ["CC(=O)OC[C@H]1O[C@@H](O/N=C2/[C@H]3CCn4c(=O)n(-c5ccccc5)c(=O)n4[C@H]3[C@H](O)[C@@H]3O[C@H]23)[C@H](OC(C)=O)[C@@H](OC(C)=O)[C@@H]1OC(C)=O", "High"],
  ["Cc1cc(C)c(-c2cc([C@H](C)O/N=C3/[C@H]4CCn5c(=O)n(-c6ccccc6)c(=O)n5[C@H]4[C@H](O)[C@@H]4O[C@H]34)on2)c(C)c1", "Low"],
  ["COC12C=C(Br)C(CC1c1cccc(C)c1)[C@@]1(CO1)C2=O (stereo partly shown)", "Mid"],
  ["O=C1C2C=C(Br)C(CC2c2ccccc2)[C@@]12CO2 (stereo partly shown)", "Mid"],
  ["C[C@H](O/N=C1/[C@H]2CCn3c(=O)n(-c4ccccc4)c(=O)n3[C@H]2[C@H](O)[C@@H]2O[C@H]12)c1cn([C@H](CO)Cc2ccccc2)nn1", "High"],
  ["C[C@@H](O/N=C1/[C@H]2CCn3c(=O)n(-c4ccccc4)c(=O)n3[C@H]2[C@H](O)[C@@H]2O[C@H]12)c1cn([C@H](CO)Cc2ccccc2)nn1", "Mid"],
  ["O=C1C2C=C(Br)C(CC2OCCCCCCO)[C@@]12CO2 (stereo partly shown)", "Mid"],
  ["COc1ccc(O[C@H]2C=C[C@@H](c3ccccc3)O[C@@H]2CO/N=C2/[C@H]3CCn4c(=O)n(-c5ccccc5)c(=O)n4[C@H]3[C@H](O)[C@@H]3O[C@H]23)cc1", "Low"],
  ["O=C1C2C=C(I)C(CC2OCCCCCCO)[C@@]12CO2 (stereo partly shown)", "High"]
]}
